Each recorded value in this set is attributed to ChEMBL document CHEMBL1157776.

System: HCT-15
test.description: Cytotoxicity against human HCT15 cells after 2 days by automatic ELISA reader system
Format: functional, cell-based
test.parameters: HCT-15, 48 h
pIC50: −log10 of the molar value.
Label rule, in plain words: pIC50 of 5 and up is Y, under 5 is N.

# record.smiles, assigned.label
records = [
    ("Oc1cccc(-c2cc(-c3ccccc3)nc(-c3ccncc3)c2)c1", "N"),
    ("Oc1ccc(-c2cc(-c3ccccc3)cc(-c3cccnc3)n2)cc1", "N"),
    ("Oc1cccc(-c2cc(-c3ccccc3)nc(-c3ccsc3)c2)c1", "N"),
    ("Oc1cccc(-c2cc(-c3ccccc3)nc(-c3cccs3)c2)c1", "N"),
    ("Oc1ccc(-c2cc(-c3ccccc3)cc(-c3ccco3)n2)cc1", "Y"),
    ("Oc1cccc(-c2cc(-c3ccccc3)nc(-c3cccnc3)c2)c1", "N"),
    ("Oc1ccccc1-c1cc(-c2ccccc2)nc(-c2ccco2)c1", "Y"),
    ("Oc1ccc(-c2cc(-c3ccccc3)cc(-c3ccccc3)n2)cc1", "Y"),
]
